Target or system: urease produced by Proteus mirabilis (Proteus mirabilis)
Construct: intact Proteus mirabilis cells and cell-free preparation
Sequence (P17086 whole entry): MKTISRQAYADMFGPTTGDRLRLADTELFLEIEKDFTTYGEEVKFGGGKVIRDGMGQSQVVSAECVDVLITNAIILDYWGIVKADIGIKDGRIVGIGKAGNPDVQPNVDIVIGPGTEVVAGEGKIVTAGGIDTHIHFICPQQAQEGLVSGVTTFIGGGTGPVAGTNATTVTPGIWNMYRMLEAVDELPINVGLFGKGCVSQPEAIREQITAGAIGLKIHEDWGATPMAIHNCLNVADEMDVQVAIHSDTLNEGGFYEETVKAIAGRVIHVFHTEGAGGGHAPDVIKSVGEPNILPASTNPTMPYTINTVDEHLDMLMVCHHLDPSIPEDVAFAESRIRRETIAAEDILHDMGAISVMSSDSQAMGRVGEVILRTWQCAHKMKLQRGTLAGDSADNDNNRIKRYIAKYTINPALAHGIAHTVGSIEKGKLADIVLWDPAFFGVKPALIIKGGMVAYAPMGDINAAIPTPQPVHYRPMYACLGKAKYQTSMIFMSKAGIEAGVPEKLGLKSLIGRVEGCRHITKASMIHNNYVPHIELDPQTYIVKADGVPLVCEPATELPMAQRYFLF
Sequence (P17088 whole entry, further chain): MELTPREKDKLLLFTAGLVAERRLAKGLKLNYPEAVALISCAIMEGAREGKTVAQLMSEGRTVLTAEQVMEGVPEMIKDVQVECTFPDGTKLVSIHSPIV
Sequence (P17087 whole entry, further chain): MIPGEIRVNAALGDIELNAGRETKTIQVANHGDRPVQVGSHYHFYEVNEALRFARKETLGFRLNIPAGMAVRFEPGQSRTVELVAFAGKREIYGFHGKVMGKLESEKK
Assay remarks: Urease inhibition effects - Proteus mirabilis urease, cell free
Format: biochemical
Condition: read-out: 50% Urease inhibition conc. I50
Would you kindly list IC50 for each of these compounds?
Please state the number and follow it with the unit.

Please indicate IC50 recorded for CC(=CC(=O)NP(N)(N)=O)CCCC(C)C
16 nM

Please indicate IC50 recorded for CC(C)=CC(=O)NP(N)(N)=O
16 nM

Please indicate IC50 recorded for CC(C)CC(=O)NP(N)(N)=O [Compound C, N-(diaminophosphinyl)-3-methylbutanamide]
61 nM

Please indicate IC50 recorded for NP(N)(=O)NC(=O)c1ccccc1 [Control Compound, N-(diaminophosphinyl)benzamide, reference compound]
13 nM
